- MEASUREMENT DESCRIPTION: qHTS assay to identify small molecule antagonists of the retinoic acid receptor (RAR) signaling pathway (AID 1159552; also: nearly all actives have a fitted effect of over 50% in size)
- RECORDED CONDITIONS: C3RL4 RARE luciferase reporter, retinol-stimulated, 6 h; series mostly up to 92.4 µM
Inconclusive results are not listed. Active and inactive are the calls of the source. Calls follow the shape of the dose curve; as a rule, active = well fitted inhibition curve with a large enough effect in the repeat runs; inconclusive = weak or mixed curves, or effect the other way; inactive = no such curve, though single readings can be large or run the other way.
Outcomes: yes (active), no (inactive)

[[record]]
compound = "C[C@]12CC[C@H]3[C@@H](CCC4=CC(=O)CC[C@@]43C)[C@@H]1CC[C@@H]2C(=O)O"
discrete_label = "no"

[[record]]
compound = "CNC(=O)Oc1c(C(C)(C)C)cc(C)cc1C(C)(C)C"
discrete_label = "no"

[[record]]
compound = "Cc1cnc[nH]1"
discrete_label = "no"

[[record]]
compound = "ClCC(Cl)(Cl)Cl"
discrete_label = "no"

[[record]]
compound = "CS(=O)(=O)c1cc(C(F)(F)F)ccc1C(=O)c1cnoc1C1CC1"
discrete_label = "no"

[[record]]
compound = "C[N+](C)=CCl"
discrete_label = "no"

[[record]]
compound = "COC(C)(C)C"
discrete_label = "no"

[[record]]
compound = "CCOP(=S)(OCC)Oc1nc(Cl)n(C(C)C)n1"
discrete_label = "no"

[[record]]
compound = "COP(=S)(OC)Oc1c(Cl)cc(C)cc1Cl"
discrete_label = "no"

[[record]]
compound = "CC(Oc1ccc(Oc2ncc(C(F)(F)F)cc2Cl)cc1)C(=O)O (stereo not drawn)"
discrete_label = "no"

[[record]]
compound = "Fc1ccc(C2(Cn3cncn3)OC2c2ccccc2Cl)cc1 (stereo not drawn)"
discrete_label = "no"

[[record]]
compound = "ClC(Br)Br"
discrete_label = "no"

[[record]]
compound = "CC(C)(C)OC(=O)c1ncn2c1[C@@H]1CCCN1C(=O)c1c(Br)cccc1-2"
discrete_label = "no"

[[record]]
compound = "C=C(C)CN(CC)c1c([N+](=O)[O-])cc(C(F)(F)F)cc1[N+](=O)[O-]"
discrete_label = "no"

[[record]]
compound = "O=C(Nc1ccccc1)c1ccccc1I"
discrete_label = "no"

[[record]]
compound = "CCOC(=O)NC(=S)Nc1ccccc1NC(=S)NC(=O)OCC"
discrete_label = "no"

[[record]]
compound = "CCCSP(=O)(OCC)Oc1ccc(Br)cc1Cl (stereo not drawn)"
discrete_label = "no"

[[record]]
compound = "ClC(Cl)Br"
discrete_label = "no"

[[record]]
compound = "ClCCOCOCCCl"
discrete_label = "no"

[[record]]
compound = "CC(C=O)Cc1ccc2c(c1)OCO2 (stereo not drawn)"
discrete_label = "no"

[[record]]
compound = "[As]#[In]"
discrete_label = "no"

[[record]]
compound = "Cc1cc(C)c(C(=O)P(=O)(C(=O)c2c(C)cc(C)cc2C)c2ccccc2)c(C)c1"
discrete_label = "no"

[[record]]
compound = "O=C1OC(=O)C2C1C1(Cl)C(Cl)=C(Cl)C2(Cl)C1(Cl)Cl (stereo not drawn)"
discrete_label = "no"

[[record]]
compound = "O=c1oc2ccccc2c(O)c1C1CCCc2ccccc21 (stereo not drawn)"
discrete_label = "no"

[[record]]
compound = "C(CCOCC1CO1)COCC1CO1 (stereo not drawn)"
discrete_label = "no"

[[record]]
compound = "CCOP(=S)(OCC)Oc1ncn(-c2ccccc2)n1"
discrete_label = "no"

[[record]]
compound = "CCN(CC)CCOC(=O)C(C)(c1ccccc1)c1ccccc1"
discrete_label = "no"

[[record]]
compound = "O=C(Oc1ccc(Br)cc1)N1CCN2CCC1CC2"
discrete_label = "no"

[[record]]
compound = "CC(COc1ccc(Oc2ccccc2)cc1)Oc1ccccn1 (stereo not drawn)"
discrete_label = "no"

[[record]]
compound = "CCOP(=S)(OCC)SCSc1ccc(Cl)cc1"
discrete_label = "no"

[[record]]
compound = "CCCCOC(=O)c1ccccc1N"
discrete_label = "no"

[[record]]
compound = "N#Cc1ccncc1"
discrete_label = "no"

[[record]]
compound = "CNC(=O)Oc1ccc(N(C)C)c(C)c1"
discrete_label = "no"

[[record]]
compound = "O=C1CN2CCOC2(c2ccccc2Cl)c2cc(Cl)ccc2N1 (stereo not drawn)"
discrete_label = "no"

[[record]]
compound = "Nc1c(Br)cc([N+](=O)[O-])cc1[N+](=O)[O-]"
discrete_label = "no"

[[record]]
compound = "CCN(CC)C(C)C(=O)c1ccccc1 (stereo not drawn)"
discrete_label = "no"

[[record]]
compound = "CCCCc1ccc(O)cc1"
discrete_label = "no"

[[record]]
compound = "c1cc2c(c(N3CCNCC3)c1)OCCO2"
discrete_label = "no"

[[record]]
compound = "COC(=O)COc1ccc(Cl)cc1Cl"
discrete_label = "no"

[[record]]
compound = "CNC(=O)Oc1ccccc1C1OCCO1"
discrete_label = "no"

[[record]]
compound = "CCOc1nc(C(Cl)(Cl)Cl)ns1"
discrete_label = "no"

[[record]]
compound = "CCOP(=S)(OCC)SCSP(=S)(OCC)OCC"
discrete_label = "no"

[[record]]
compound = "CC1(C)COP(Oc2ccccc2)OC1"
discrete_label = "no"

[[record]]
compound = "OC(c1ccc(F)cc1)(c1cncnc1)c1ccccc1Cl (stereo not drawn)"
discrete_label = "no"

[[record]]
compound = "COC(=O)c1ccccc1S(=O)(=O)NC(=O)Nc1nc(C)cc(C)n1"
discrete_label = "no"

[[record]]
compound = "CC(C)[N+](=O)[O-]"
discrete_label = "no"

[[record]]
compound = "COc1cc2c(cc1OC)[C@@]13CCN4CC5=CCO[C@H]6CC(=O)N2[C@H]1[C@H]6[C@H]5C[C@H]43"
discrete_label = "no"

[[record]]
compound = "O=C1OC(c2ccc(O)c(S(=O)(=O)O)c2)(c2ccc(O)c(S(=O)(=O)O)c2)c2c(Br)c(Br)c(Br)c(Br)c21"
discrete_label = "no"

[[record]]
compound = "N#CC(CCc1ccc(Cl)cc1)(Cn1cncn1)c1ccccc1 (stereo not drawn)"
discrete_label = "yes"

[[record]]
compound = "O=[N+]([O-])c1cccc2cccnc12"
discrete_label = "no"

[[record]]
compound = "O=[N+]([O-])c1ccc2c3c(cccc13)CC2"
discrete_label = "no"

[[record]]
compound = "CCS(=O)(=O)CCSP(=O)(OC)OC"
discrete_label = "no"

[[record]]
compound = "CC(Cl)(Cl)[N+](=O)[O-]"
discrete_label = "no"

